// provenance: patent US20240425491A1

molecular target: human α5β3γ2 GABAARs in mouse L(tk−) cells (Homo sapiens, UniProt P18507+P31644); construct: expressed in transfected cells; host or cells: mouse L(tk−) cells, dexamethasone-inducible vector pMSGneo; assay: In vitro electrophysiological recording assay (α5-GABAAR relative efficacy), QPatch; assay type: cell-based; details: Conc 1 μM; GABA EC10-20
Sequence (P31644 32-462): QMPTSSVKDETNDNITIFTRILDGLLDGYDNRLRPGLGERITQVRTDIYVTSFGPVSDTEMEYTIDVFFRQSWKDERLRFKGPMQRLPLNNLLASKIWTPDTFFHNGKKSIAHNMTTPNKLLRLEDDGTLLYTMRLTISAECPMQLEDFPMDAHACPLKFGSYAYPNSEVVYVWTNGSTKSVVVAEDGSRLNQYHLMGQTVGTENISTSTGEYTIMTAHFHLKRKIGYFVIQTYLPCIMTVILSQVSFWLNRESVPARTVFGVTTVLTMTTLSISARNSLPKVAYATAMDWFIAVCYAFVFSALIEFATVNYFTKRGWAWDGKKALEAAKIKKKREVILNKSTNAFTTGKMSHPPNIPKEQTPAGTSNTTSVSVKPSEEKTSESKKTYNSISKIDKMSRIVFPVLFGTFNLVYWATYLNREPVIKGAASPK
Sequence (P28472 26-473 partner): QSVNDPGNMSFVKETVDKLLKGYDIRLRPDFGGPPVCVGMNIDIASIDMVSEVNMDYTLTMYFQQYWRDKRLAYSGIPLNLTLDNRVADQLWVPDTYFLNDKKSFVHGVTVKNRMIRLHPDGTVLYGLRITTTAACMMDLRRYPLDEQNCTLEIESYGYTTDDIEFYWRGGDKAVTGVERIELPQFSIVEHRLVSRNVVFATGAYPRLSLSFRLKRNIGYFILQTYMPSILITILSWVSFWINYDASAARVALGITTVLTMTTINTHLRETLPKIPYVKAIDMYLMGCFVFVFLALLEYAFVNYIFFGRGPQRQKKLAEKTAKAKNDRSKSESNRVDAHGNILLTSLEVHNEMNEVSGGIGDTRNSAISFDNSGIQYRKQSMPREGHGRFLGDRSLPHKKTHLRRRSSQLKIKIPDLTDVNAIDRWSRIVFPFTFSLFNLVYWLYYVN
Sequence (P18507 40-475): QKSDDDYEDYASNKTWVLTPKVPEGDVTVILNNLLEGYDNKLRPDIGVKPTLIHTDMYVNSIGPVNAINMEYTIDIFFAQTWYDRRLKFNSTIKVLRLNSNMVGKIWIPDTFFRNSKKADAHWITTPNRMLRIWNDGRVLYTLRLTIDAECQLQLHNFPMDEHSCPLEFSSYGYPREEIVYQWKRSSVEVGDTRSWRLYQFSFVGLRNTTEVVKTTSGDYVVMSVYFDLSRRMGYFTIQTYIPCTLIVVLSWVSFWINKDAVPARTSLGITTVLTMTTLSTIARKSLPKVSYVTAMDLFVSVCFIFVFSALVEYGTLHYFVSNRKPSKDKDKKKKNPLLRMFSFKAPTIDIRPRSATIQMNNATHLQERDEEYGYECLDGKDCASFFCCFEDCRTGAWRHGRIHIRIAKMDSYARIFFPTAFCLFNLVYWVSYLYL
Classes (α5-GABAAR Relative Efficacy (to DMCM), Qpatch): class A (below -0.8), class B (-0.8 to below -0.6), class C (-0.6 or more)

Compound	Category
COc1nc(-c2cnc(OCCN(C)C)nc2)ccc1NC(=O)c1c(-c2ccccc2)noc1C [Example 163]	class A
COc1cc(-c2cncnc2)cnc1NC(=O)c1c(-c2ccccc2)noc1C [Example 9]	class C
COc1nc(-c2ccc(N)nc2)ccc1NC(=O)c1c(-c2ccccc2)noc1C [Example 89]	class B
COc1nc(-c2ccc3[nH]nnc3c2)ccc1NC(=O)c1c(-c2ccccc2)noc1C [Example 49]	class A
COc1nc(-c2cnn(C)c2)ccc1NC(=O)c1c(-c2ccccc2)noc1C [Example 4]	class B
COc1nc(-c2cncc(N)n2)ccc1NC(=O)c1c(-c2ccccc2)noc1C [Example 40]	class C
COc1nc(-c2cncc(OC(F)F)c2)ccc1NC(=O)c1c(-c2ccccc2)noc1C [Example 87]	class B
Cc1onc(-c2ccccc2)c1C(=O)Nc1ccc(-n2ccnc2)nc1N(C)C [Example 176]	class C

* * *

Target: human recombinant GABAAR containing α5β3γ2 subunits (benzodiazepine site) (Homo sapiens, UniProt P18507+P31644)
Construct: expressed in transfected cells; host or cells: mouse L(tk−) cells, dexamethasone-inducible vector pMSGneo
Experiment: In vitro radioligand binding assay (α5-GABAAR Ki)
Conditions: inhibition of [3H]Ro15-1788 binding, membranes of L(tk−) cells expressing human α5β3γ2; read-out: α5-GABAAR Ki
Text: Mouse L(tk^−) cells stably expressing human α1β3γ2, α2β3γ2, α3β3γ2, α5β3γ2 GABAARs generated by transfection of the individual subunits in the dexamethasone-inducible expression vector pMSGneo in mouse L(tk^−) cells (Hadingham et al., 1993, Mol. Pharmacol. 43:970-975 and 1993, Mol. Pharmacol. 44:1211-1218) were used for binding and functional assays. […] The % inhibition of [^3H] Ro15-1788 binding was plotted as a function of compound concentration and the IC50 calculated. […]
pKi: −log10 of the molar value. Counter-ions that a name gives are not always drawn.
Measured Property: pKi

Compound	Obs Value
CNc1ncc(-c2ccc(NC(=O)c3c(-c4ccccc4)noc3C)c(OC)n2)cn1	9.10
COc1nc(-c2ccnn2C)ccc1NC(=O)c1c(-c2ccccc2)noc1C	8.62
COc1nc(-c2cnoc2)ccc1NC(=O)c1c(-c2ccc(F)cc2)noc1C	9.10
Cc1onc(-c2ccccc2)c1C(=O)Nc1ccc(-c2ccc(N)nc2)nc1OC(C)C	9.22
COc1ncc(-c2cnc(NC(=O)c3c(-c4ccccc4)noc3C)c(OC)n2)cn1	8.70
COc1nc(-c2ccc3[nH]nc(N)c3c2)ccc1NC(=O)c1c(-c2ccccc2)noc1C	7.80
COc1nc(-c2cnc(N(C)C)nc2)ccc1NC(=O)c1c(-c2ccccc2)noc1C	8.92
COc1nc(-c2ccnc(N(C)C)c2)ccc1NC(=O)c1c(-c2ccccc2)noc1C	8.10
Cc1onc(-c2ccc(F)cc2)c1C(=O)Nc1ccc(-c2cnc3n2CCN(C)C3)nc1OC(C)C.Cl [Example 209, hydrochloride]	9.52
CNCc1ccc(-c2ccc(NC(=O)c3c(-c4ccccc4)noc3C)c(OC)n2)cc1.Cl [Example 183, hydrochloride]	7.85
COc1nc(-c2cn(CCN)cn2)ccc1NC(=O)c1c(-c2ccccc2)noc1C [Example 200, dihydrochloride]	7.77
COc1nc(-c2cncnc2)cnc1NC(=O)c1c(-c2ccccc2)noc1C	8.64
COc1nc(-c2ccc3c(c2)COC(=O)N3)ccc1NC(=O)c1c(-c2ccccc2)noc1C	7.86
COc1nc(-n2cnnc2)ccc1NC(=O)c1c(-c2ccccc2)noc1C	8.72
COc1nc(-c2cnc3cnccn23)ccc1NC(=O)c1c(-c2ccccc2)noc1C	9.00
COc1nc(-c2cnc(CN)nc2)ccc1NC(=O)c1c(-c2ccccn2)nnn1C [Example 202, hydrochloride]	7.11
